Reference for the values: patent US20230338555A1

Molecular target: T1, human sortilin stably expressed on HEK 293 cells (HEK-SORT1 cells) (human, UniProt Q99523 78-831)
T1 sequence (looked up): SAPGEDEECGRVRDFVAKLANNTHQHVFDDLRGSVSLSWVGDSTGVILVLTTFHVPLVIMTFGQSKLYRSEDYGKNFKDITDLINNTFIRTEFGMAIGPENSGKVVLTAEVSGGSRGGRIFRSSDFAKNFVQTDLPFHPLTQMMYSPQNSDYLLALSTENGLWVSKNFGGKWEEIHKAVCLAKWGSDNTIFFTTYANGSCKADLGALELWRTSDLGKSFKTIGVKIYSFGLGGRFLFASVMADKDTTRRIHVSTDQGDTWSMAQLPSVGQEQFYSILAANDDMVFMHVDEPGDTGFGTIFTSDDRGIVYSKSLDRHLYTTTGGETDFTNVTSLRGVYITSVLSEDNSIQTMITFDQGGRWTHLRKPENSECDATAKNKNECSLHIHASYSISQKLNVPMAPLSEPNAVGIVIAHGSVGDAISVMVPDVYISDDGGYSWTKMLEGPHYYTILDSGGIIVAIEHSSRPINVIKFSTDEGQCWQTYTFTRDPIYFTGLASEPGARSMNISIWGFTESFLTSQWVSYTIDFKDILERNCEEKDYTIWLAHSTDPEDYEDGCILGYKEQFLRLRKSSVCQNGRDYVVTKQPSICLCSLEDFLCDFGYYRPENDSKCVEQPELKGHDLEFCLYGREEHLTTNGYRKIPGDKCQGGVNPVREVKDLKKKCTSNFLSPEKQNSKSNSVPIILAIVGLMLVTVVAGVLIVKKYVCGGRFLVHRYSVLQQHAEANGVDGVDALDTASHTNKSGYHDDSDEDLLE
Assay: cell-based or functional assay
Ends that are not written are not given here.
Endpoint Label: Mean Fluorescence Intensity (MFI), uptake 37C-4C, at 76 nM

| Binder | Unit Abbreviation | Measurement |
| --- | --- | --- |
| KPAPSGPSPGLYENKPRRPYIL (not fully specified (residue 1); also: X side chain clicked via BCN (triazole) and 6-aminohexanol linker to 5' end of oligonucleotide CCAGGCTGGTTATGACTCAG (MOE, 3'-Cy3)) | MFI | 413 |
| KAGMSGASAGLYENKPRRPYIL (not fully specified (residue 1); also: X side chain clicked via BCN (triazole) and 6-aminohexanol linker to 5' end of oligonucleotide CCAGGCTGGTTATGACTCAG (MOE, 3'-Cy3)) | MFI | 306 |
| KPPPAGSSPGLYENKPRRPYIL (not fully specified (residue 1); also: Cy3 label attached by BCN click to the azide) [Compound 17-AH-1492, Cy3-labeled extended neurotensin (eNT, …)] | MFI | 593 |
| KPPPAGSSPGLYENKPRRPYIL (not fully specified (residue 1); also: X side chain clicked via BCN (triazole) and 6-aminohexanol linker to 5' end of oligonucleotide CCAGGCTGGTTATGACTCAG (MOE, 3'-Cy3)) | MFI | 309 |
| KAGSIKPPPAGSSPGLYENKPRRPYIL (not fully specified (residue 1); also: X side chain clicked via BCN (triazole) and 6-aminohexanol linker to 5' end of oligonucleotide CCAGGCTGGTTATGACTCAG (MOE, 3'-Cy3)) | MFI | 609 |
